Assayed system: Guanine deaminase (Homo sapiens)
Sequence (Q9Y2T3 whole entry): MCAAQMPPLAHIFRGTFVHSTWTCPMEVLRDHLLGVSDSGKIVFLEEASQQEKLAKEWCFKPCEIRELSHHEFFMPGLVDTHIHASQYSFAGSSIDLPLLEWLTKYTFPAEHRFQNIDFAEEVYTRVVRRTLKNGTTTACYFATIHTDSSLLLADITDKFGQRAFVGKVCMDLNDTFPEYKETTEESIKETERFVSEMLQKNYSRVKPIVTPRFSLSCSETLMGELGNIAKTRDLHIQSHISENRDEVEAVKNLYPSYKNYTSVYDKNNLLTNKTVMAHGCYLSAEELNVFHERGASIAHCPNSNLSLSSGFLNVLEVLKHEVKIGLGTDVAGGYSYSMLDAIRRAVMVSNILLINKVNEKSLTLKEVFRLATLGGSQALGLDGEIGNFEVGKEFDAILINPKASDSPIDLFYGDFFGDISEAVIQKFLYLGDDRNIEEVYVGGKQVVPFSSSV
Experimental readout: Ki (µM)
Just the number in µM, nothing appended.

Consider the compound shown here: O=C(NC1(CO)NC(=O)c2ncn(Cc3ccccc3)c2NC1=O)OCc1ccccc1 (stereo unspecified) What is its recorded Ki?
16.7
